Target: AKT3 (Homo sapiens)
Assay: Cellular inhibition of AKT3 using an ELISA (AKT cel, Ex. C6)
Type: cell-based
Design: endogenous in cells; host or cells: MDA-MB 231
Parameter Measured: IC50

get_value(item= Cn1c(=O)nc2n(C3CCCC3)nc(-c3ccc(-c4ccc(OCCN5CCOCC5)cc4)o3)nc-2c1=O , readout=IC50) returns 0.813 µM

* * *

Assign IC50 to each entry below.
Target: AKT3 (Homo sapiens, UniProt Q9Y243)
Sequence (Q9Y243 whole entry): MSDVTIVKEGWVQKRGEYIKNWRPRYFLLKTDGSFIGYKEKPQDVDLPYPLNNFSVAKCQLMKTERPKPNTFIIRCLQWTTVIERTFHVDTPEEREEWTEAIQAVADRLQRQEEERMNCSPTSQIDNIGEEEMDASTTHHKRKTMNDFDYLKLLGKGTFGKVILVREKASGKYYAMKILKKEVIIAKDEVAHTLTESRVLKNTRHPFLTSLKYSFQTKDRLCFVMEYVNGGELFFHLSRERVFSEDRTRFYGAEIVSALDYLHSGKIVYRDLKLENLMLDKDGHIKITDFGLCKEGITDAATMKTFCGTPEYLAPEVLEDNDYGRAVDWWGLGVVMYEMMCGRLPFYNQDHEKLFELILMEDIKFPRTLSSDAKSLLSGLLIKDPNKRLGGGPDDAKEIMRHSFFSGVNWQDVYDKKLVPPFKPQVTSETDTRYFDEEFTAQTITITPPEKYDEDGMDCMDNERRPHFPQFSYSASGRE
Test: Cellular inhibition of AKT3 using an ELISA (AKT cel, Ex. C6)
Format: cell-based
Design: endogenous in cells; host or cells: MDA-MB 231
Settings: MDA-MB 231 cells, phosphorylated MAPK ELISA, 30 minutes with compound; read-out: AKT cel (Ex. C6): pIC50 values (converted)
Provide the measurement as a number trailed by its unit.

Look over these answered cases.
- Cpd Smiles: "Cn1c(=O)nc2n(C3CCCC3)nc(-c3ccc(-c4ccc(CN5CCN(CCO)CC5)cc4)o3)nc-2c1=O"
  IC50: "102 nM"
- Cpd Smiles: "Cn1c(=O)nc2n(C3CCCC3)nc(-c3ccc(-c4ccc(CNCCO)cc4)o3)nc-2c1=O"
  IC50: "34.8 nM"
- Cpd Smiles: "Cn1c(=O)nc2n(C3CCNCC3)nc(-c3ccc(-c4cccc(Cl)c4)o3)nc-2c1=O"
  IC50: "3.41 nM"
- Cpd Smiles: "Cn1c(=O)nc2n(C3CCN(S(N)(=O)=O)CC3)nc(-c3ccc(-c4cccc(Cl)c4)o3)nc-2c1=O"
  IC50: "187 nM"
- Cpd Smiles: "Cn1c(=O)nc2n(C3CCCC3)nc(-c3ccc(-c4ccc(CO)cc4)o3)nc-2c1=O"
  IC50: "277 nM"

Go through the list and state IC50 for each entry.
1. Cn1c(=O)nc2n(C3CCCC3)nc(-c3ccc(-c4ccc(CN(CCO)CCO)cc4)o3)nc-2c1=O
2. Cn1c(=O)nc2n(C3CCCC3)nc(-c3ccc(-c4ccc(CN5CCNCC5)cc4)o3)nc-2c1=O
3. Cn1nc(-c2ccc(-c3cccc(CN4CCOCC4)c3)o2)nc2c(=O)n(C)c(=O)nc1-2
4. COCCN1CCN(Cc2ccc(-c3ccc(-c4nc5c(=O)n(C)c(=O)nc-5n(C5CCCC5)n4)o3)cc2)CC1

OUT:
["39.2 nM", "98.2 nM", "62.1 nM", "67.8 nM"]

Record Cn1c(=O)nc2n(C3CCCC3)nc(-c3ccc(-c4ccc(CNCc5cccnc5)cc4)o3)nc-2c1=O ; system AKT3 (Homo sapiens, UniProt Q9Y243); IC50 = 123 nM

* * *

Assign melting point to each entry below.

- Cpd Smiles: "CN(CCO)Cc1ccc(-c2ccc(-c3nc4c(=O)n(C)c(=O)nc-4n(C4CCCC4)n3)o2)cc1"
  Measured Value: "> 250 °C"
- Cpd Smiles: "Cn1c(=O)nc2n(C3CCCC3)nc(-c3ccc(-c4ccc(CN5CCN(S(N)(=O)=O)CC5)cc4)o3)nc-2c1=O"
  Measured Value: "> 250 °C"
- Cpd Smiles: "Cn1c(=O)nc2n(C3CCCC3)nc(-c3ccc(-c4ccc(CN5CCN(CCOCCO)CC5)cc4)o3)nc-2c1=O"
  Measured Value: "> 250 °C"

Go through the list and state melting point for each entry.
1. Cn1c(=O)nc2n(C3CCCC3)nc(-c3ccc(-c4ccc(CN5CCC(O)CC5)cc4)o3)nc-2c1=O
2. Cn1c(=O)nc2n(C3CCNCC3)nc(-c3ccc(-c4cccc(Cl)c4)o3)nc-2c1=O
3. Cn1c(=O)nc2n(C3CCN(S(N)(=O)=O)CC3)nc(-c3ccc(-c4cccc(Cl)c4)o3)nc-2c1=O
4. Cn1nc(-c2ccc(-c3cccc(CN4CCOCC4)c3)o2)nc2c(=O)n(C)c(=O)nc1-2
5. Cn1nc(-c2ccc(-c3cccc(CNS(C)(=O)=O)c3)o2)nc2c(=O)n(C)c(=O)nc1-2
6. Cn1c(=O)nc2n(C3CCCC3)nc(-c3ccc(-c4ccc(S(=O)(=O)N5CCOCC5)cc4)o3)nc-2c1=O
7. Cn1nc(-c2ccc(-c3ccc(S(=O)(=O)N4CCOCC4)cc3)o2)nc2c(=O)n(C)c(=O)nc1-2

OUT:
["> 250 °C", "> 250 °C", "> 250 °C", "209.3 to 219.8 °C", "215.1 to 236.6 °C", "> 250 °C", "264.3 to 273.4 °C"]

Go through the list and state melting point for each entry.
1. Cn1c(=O)nc2n(C3CCCC3)nc(-c3ccc(-c4ccc(CN5CCNCC5)cc4)o3)nc-2c1=O
2. Cn1nc(-c2ccc(-c3cccc(Cl)c3)o2)nc2c(=O)n(C3CCN(Cc4ccccc4)CC3)c(=O)nc1-2

OUT:
["> 276.5 °C", "210.4 to 241 °C"]

* * *

Assign IC50 to each entry below.
Molecular target: UniProt Q9Y243
Assay: Cellular inhibition of AKT3 using an ELISA (AKT cel, Ex. C6)
Assay type: cell-based
Parameters: endogenous in cells; host or cells: MDA-MB 231
Conditions: MDA-MB 231 cells, phosphorylated MAPK ELISA, 30 minutes with compound; read-out: AKT cel (Ex. C6): pIC50 values (converted)
One number for each entry, in µM.

Look over these answered cases.
- Cpd Smiles: "CN1CCN(C(=O)COc2ccc(-c3ccc(-c4nc5c(=O)n(C)c(=O)nc-5n(C5CCCC5)n4)o3)cc2)CC1"
  IC50 (µM): 0.47
- Cpd Smiles: "Cn1c(=O)nc2n(C3CCCC3)nc(-c3ccc(-c4ccc(CN5CCN(S(N)(=O)=O)CC5)cc4)o3)nc-2c1=O"
  IC50 (µM): 0.202

get_value(item= Cn1c(=O)nc2n(C3CCCC3)nc(-c3ccc(-c4cccc(CN5CCOCC5)c4)o3)nc-2c1=O , readout=IC50) returns 0.111

* * *

Assign IC50 to each entry below.
System: A2780 cell
Test: Cytotox/survival of A2780 cell after 3 days
Type: cell-based
Conditions: Homo sapiens, 72 h; A2780 ovarian carcinoma cell line, 3 days; read-out: Cytotox/survival of A2780 cell after 3 days - pIC50 values (converted)
Provide the measurement as a number trailed by its unit.

Look over these answered cases.
- Compound: "Cn1c(=O)nc2n(C3CCCC3)nc(-c3ccc(-c4ccc(CN(CCO)CCO)cc4)o3)nc-2c1=O [Compound 134]"
  Measurement Target: "A2780 cell"
  Measured Value: "52.7 nM"
- Compound: "Cn1c(=O)nc2n(C3CCCC3)nc(-c3ccc(-c4ccc(CN5CCC(O)CC5)cc4)o3)nc-2c1=O [Compound 103]"
  Measurement Target: "A2780 cell"
  Measured Value: "60.8 nM"

Go through the list and state IC50 for each entry.
1. Cn1c(=O)nc2n(C3CCN(S(N)(=O)=O)CC3)nc(-c3ccc(-c4cccc(Cl)c4)o3)nc-2c1=O [Compound 114]
2. CC(c1ccccc1)n1nc(-c2ccc(-c3cccc(Cl)c3)o2)nc2c(=O)n(C)c(=O)nc1-2 (centres unmarked) [Compound 67]

OUT:
1. 110 nM
2. 196 nM

* * *

Assign IC50 to each entry below.
Tested on: A2780 cell
Experiment: Cytotox/survival of A2780 cell after 3 days
Format: cell-based
Conditions: Homo sapiens, 72 h; A2780 ovarian carcinoma cell line, 3 days; read-out: Cytotox/survival of A2780 cell after 3 days - pIC50 values (converted)
One number for each entry, in µM.

Look over these answered cases.
- Cpd Smiles: "Cn1nc(-c2ccc(-c3cccc(CN4CCOCC4)c3)o2)nc2c(=O)n(C)c(=O)nc1-2"
  IC50 (µM): 0.0619
- Cpd Smiles: "COCCN1CCN(Cc2ccc(-c3ccc(-c4nc5c(=O)n(C)c(=O)nc-5n(C5CCCC5)n4)o3)cc2)CC1"
  IC50 (µM): 0.119
- Cpd Smiles: "COC1CCN(Cc2ccc(-c3ccc(-c4nc5c(=O)n(C)c(=O)nc-5n(C5CCCC5)n4)o3)cc2)CC1"
  IC50 (µM): 0.0877

Turning to the following compound.
get_value(item= Cn1c(=O)nc2n(C3CCCC3)nc(-c3ccc(-c4ccc(CN5CCOCC5)cc4)o3)nc-2c1=O , readout=IC50) returns 0.053

Every entry's value here was drawn from patent US7241763B2.
